Attribution: PubChem BioAssay (NCI)

System: COLO 205 colon
Assay summary: NCI tumour cell line growth inhibition, 48 h
Below, each of the compounds is paired with its reported TGI value.
Property measured: TGI (µM)

{"Compound": "COC(=O)C1(C)NCCc2c1[nH]c1ccccc21 (stereo unspecified)", "Target entity": "COLO 205 colon", "Property measured": "TGI", "Qualifier operator": ">", "Obs value": 100}
{"Compound": "O=[N+]([O-])c1cc2c([N+](=O)[O-])cccc2o1", "Target entity": "COLO 205 colon", "Property measured": "TGI", "Qualifier operator": "=", "Obs value": 16.5}
{"Compound": "C=CCCCCCCCCC(=O)O", "Target entity": "COLO 205 colon", "Property measured": "TGI", "Qualifier operator": "=", "Obs value": 197}
{"Compound": "O=C1/C(=C/c2ccc(Cl)cc2)CSC/C1=C\\c1ccc(Cl)cc1", "Target entity": "COLO 205 colon", "Property measured": "TGI", "Qualifier operator": "=", "Obs value": 7.26}
{"Compound": "COc1ccc2c(c1OC(C)=O)C1=CC(=O)CCC13CCNC3C2 (stereo unspecified)", "Target entity": "COLO 205 colon", "Property measured": "TGI", "Qualifier operator": ">", "Obs value": 100}
{"Compound": "CN(C)CCNC(=O)NC[C@H]1CC[C@@H]2[C@H](O1)c1cc(C(F)(F)F)ccc1N[C@H]2c1ccccc1", "Target entity": "COLO 205 colon", "Property measured": "TGI", "Qualifier operator": "=", "Obs value": 0.236}
